# method_notes: predicted Cmax in human organs from rat organ/plasma ratios
# Type: in vivo
# measurement_conditions: 50 mg, from rat organ/plasma ratios [56], read-out: Predicted Cmax (µM) Kidney
# From the text: In addition, the reported ratios of Cmax values in various organs of rat to Cmax in rat plasma, along with the Cmax values in human plasma, were used to predict the Cmax values in the corresponding organs of human corresponding to the Cmax values in human plasma.

molecule: CS(=O)(=O)CCNCc1ccc(-c2ccc3ncnc(Nc4ccc(OCc5cccc(F)c5)c(Cl)c4)c3c2)o1 [Lapatinib]
Cmax: ~1.3 µM

* * *

# measured_on: human mPGES-1 (Homo sapiens, UniProt O14684)
# Construct: made in house
# Sequence (O14684 1-152): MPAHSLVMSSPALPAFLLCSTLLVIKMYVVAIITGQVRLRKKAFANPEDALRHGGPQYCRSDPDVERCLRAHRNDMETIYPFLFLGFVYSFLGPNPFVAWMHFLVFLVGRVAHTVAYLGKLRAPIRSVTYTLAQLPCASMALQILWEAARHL
# method_notes: in vitro inhibitory activity against human mPGES-1 (PGE2 ELISA assay)
# Assay type: biochemical
# measurement_conditions: 10 µM, single concentration; read-out: Inhibition (%) at 10 µM

molecule: CS(=O)(=O)CCNCc1ccc(-c2ccc3ncnc(Nc4ccc(OCc5cccc(F)c5)c(Cl)c4)c3c2)o1 [Lapatinib]
inhibition at 10 µM, %: 99
--
molecule: CCCCC[C@H](O)/C=C/[C@H]1[C@H](O)CC(=O)[C@@H]1C/C=C\CCCC(=O)O [Dinoprostone]
inhibition at 10 µM, %: 4
--
molecule: COc1cc2nc(N3CCN(C(=O)C4COc5ccccc5O4)CC3)nc(N)c2cc1OC (stereo not shown) [Doxazosin]
inhibition at 10 µM, %: 21
--
molecule: COc1cc(C)c(/C=C/C(C)=C/C=C/C(C)=C/C(=O)O)c(C)c1C [Acitretin]
inhibition at 10 µM, %: 83
